Classification by logP follows these ranges: class 0 = under 3, class 1 = from 3 up to 4, class 2 = 4 and over

O=C(NC(=O)c1c(F)cccc1F)Nc1cc(Cl)c(OC(F)(F)C(F)F)c(Cl)c1 : class 2
Cc1c(F)c(F)c(COC(=O)C2C(/C=C(\Cl)C(F)(F)F)C2(C)C)c(F)c1F (stereo not drawn) : class 2
O=C(NC(=O)c1c(F)cccc1F)Nc1cc(Cl)c(OC(F)(F)C(F)C(F)(F)F)cc1Cl (stereo not drawn) : class 2
ClC=CCCl (mixture of isomers) : class 0
CCOC(=O)c1cnn(C)c1S(=O)(=O)NC(=O)Nc1nc(OC)cc(OC)n1 : class 0
CCOc1nc(C(Cl)(Cl)Cl)ns1 : class 1
CCOC(=O)C(Cl)Cc1cc(-n2nc(C)n(C(F)F)c2=O)c(F)cc1Cl (stereo not drawn) : class 1
CC(C)(C)N(NC(=O)c1ccc(Cl)cc1)C(=O)c1ccccc1 : class 1
COc1cccc(C(=O)NN(C(=O)c2cc(C)cc(C)c2)C(C)(C)C)c1C : class 1
CCCCN(CC)c1c([N+](=O)[O-])cc(C(F)(F)F)cc1[N+](=O)[O-] : class 2

Input line: Place this compound in its band: O=C1C2CC=CCC2C(=O)N1SC(Cl)(Cl)Cl (stereo not drawn)
Output line: class 0

Input line: Classify this compound: CCCCOCC(C)OC(=O)COc1nc(F)c(Cl)c(N)c1Cl (stereo not drawn)
Output line: class 2

Input line: Classify this compound: C=C/C=C\CC1=C(C)[C@@H](OC(=O)[C@@H]2[C@@H](/C=C(\C)C(=O)OC)C2(C)C)CC1=O
Output line: class 2

Input line: Quick check: band for Fc1cccc(F)c1-c1nnc(-c2ccccc2Cl)nn1
Output line: class 1

Input line: Lab note: sort Clc1ccc(CSC(Cn2cncn2)=Nc2ccc(Cl)cc2Cl)cc1 into the matching logP band.
Output line: class 2

Input line: The entry to classify is O=C(Nc1ccc(Cl)cc1C(O)c1ccccc1)c1ccncc1 (stereo not drawn) ; which class holds it?
Output line: class 1

Input line: Which logP band matches CCCCCC(C)OC(=O)COc1ccc(Cl)c2cccnc12 (stereo not drawn) ?
Output line: class 2

Input line: Which class is correct for the following compound? COc1cc(OC)nc(N=C(O)NS(=O)(=O)Nc2ccccc2C(=O)C2CC2)n1
Output line: class 0

Input line: Assign a bin to O=C([O-])C(F)(F)C(F)F.[Na+]
Output line: class 0

Input line: Could you tell me which band CCS(=O)CCSP(=O)(OC)OC (stereo not drawn) belongs to?
Output line: class 0

Input line: Exam item: assign Nc1c(Cl)cc([N+](=O)[O-])cc1Cl to the correct category.
Output line: class 0

Input line: Tag the class for CC1=CC[C@@H]2C[C@@H](C[C@]3(CC[C@H](C)[C@@H](C)O3)O2)OC(=O)[C@@H]2C=C(C)[C@@H](O)[C@H]3OCC(=CC=C[C@H](C)C1)[C@]32O
Output line: class 2

Input line: Which category fits this record: CCc1cccc(C)c1N(COC(C)C)C(=O)CCl
Output line: class 1

Input line: Textbook exercise: identify the category of the compound given here, CC1=NNC(=O)N(/N=C/c2cccnc2)C1 , according to its measured value.
Output line: class 0

Input line: Which class does C/C=C(\C)C(=O)O[C@H]1C[C@@H](OC(C)=O)[C@@]2(C(=O)OC)CO[C@H]3[C@@H](O)[C@@](C)([C@]45O[C@@]4(C)[C@H]4C[C@@H]5O[C@@H]5OC=C[C@@]54O)[C@H]4[C@]1(CO[C@]4(O)C(=O)OC)[C@@H]32 fall in?
Output line: class 0

Input line: Sort into band: CCOc1ccc([Si](C)(C)CCCc2ccc(F)c(Oc3ccccc3)c2)cc1
Output line: class 2

Hey, just so you know, these numbers are from the OPERA property sets (Mansouri et al. 2018).
